target_desc: Cannabinoid receptor 1 (Homo sapiens)
Sequence (P21554 whole entry): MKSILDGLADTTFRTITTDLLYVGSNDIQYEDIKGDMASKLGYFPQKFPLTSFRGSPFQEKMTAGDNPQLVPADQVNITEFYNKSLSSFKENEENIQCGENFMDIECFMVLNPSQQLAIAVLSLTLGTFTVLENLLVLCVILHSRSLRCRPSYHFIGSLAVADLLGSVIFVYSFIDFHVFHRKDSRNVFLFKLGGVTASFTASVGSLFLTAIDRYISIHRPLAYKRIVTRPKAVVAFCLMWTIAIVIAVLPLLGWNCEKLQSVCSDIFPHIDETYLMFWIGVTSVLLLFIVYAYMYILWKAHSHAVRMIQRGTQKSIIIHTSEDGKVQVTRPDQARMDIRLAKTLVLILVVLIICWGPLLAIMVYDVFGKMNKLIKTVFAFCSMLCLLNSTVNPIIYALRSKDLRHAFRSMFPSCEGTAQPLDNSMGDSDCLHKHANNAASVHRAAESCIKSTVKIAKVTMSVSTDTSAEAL
test_description: Displacement of [3H]CP-55,940 from human recombinant CB1 receptor expressed in HEK293 cell membranes
metric: pKi
Recall that pKi is obtained by taking minus log10 of the concentration measured in molar.

compound_string	pKi
CCCCCc1cc(O)cc(OCCCCCCCCCCCNC2CC2)c1	5.68
CCCCCCC(C)(C)c1cc(O)cc(OCCCCCCCC(=O)N[C@H](C)CO)c1	7.76

Read the next record carefully.
Exam item: Recorded pKi of CCCCCc1cc(O)cc(OCCCCCCCCCCC(=O)NN(C)C)c1 , please.
Marked response: 6.07

====

target_desc: Cannabinoid receptor 2 (Homo sapiens, UniProt P34972)
Sequence (P34972 whole entry): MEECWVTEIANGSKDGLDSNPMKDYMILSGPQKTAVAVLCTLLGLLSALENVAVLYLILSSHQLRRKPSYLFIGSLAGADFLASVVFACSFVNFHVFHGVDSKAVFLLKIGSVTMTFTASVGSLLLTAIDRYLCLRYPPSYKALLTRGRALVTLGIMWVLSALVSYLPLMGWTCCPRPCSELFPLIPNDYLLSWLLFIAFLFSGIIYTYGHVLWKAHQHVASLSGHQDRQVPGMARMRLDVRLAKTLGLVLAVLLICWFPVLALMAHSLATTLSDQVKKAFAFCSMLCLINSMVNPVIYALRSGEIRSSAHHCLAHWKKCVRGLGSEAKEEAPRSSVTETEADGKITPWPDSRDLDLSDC
test_description: Displacement of [3H]CP-55,940 from human recombinant CB2 receptor expressed in HEK293 cell membranes
pKi: −log10 of the molar value.
metric: pKi

compound_string	metric	observed_measurement
CCCCCCc1ccc(OCCCCCCCCCCC(=O)NC(CO)CO)cc1O	pKi	< 5.00
CCCCCCc1ccc(OCCCCCCCCCCC(=O)NC23CC4CC(CC(C4)C2)C3)cc1O	pKi	< 5.00

Exam item: GET /values?readout=pKi&item= CCCCCCC(C)(C)c1cc(O)cc(OCCCCCCCCCCC(=O)NC23CC4CC(CC(C4)C2)C3)c1
Marked response: < 5.00
